B1: Hairpin Ribozyme (parent)
chain: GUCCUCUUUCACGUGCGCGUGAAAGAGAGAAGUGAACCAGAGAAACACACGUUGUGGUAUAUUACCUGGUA

Variants of: B1
Assay: self-cleavage, relative activity (ratio to wild type); higher = more cleavage; co-transcriptional
Where self-cleavage equals or exceeds 0.2, the correct label is condition met; where it does not, the label is condition not met.

   mutant_name              group
0    A43C C46G      condition met
1    C38G G56C  condition not met
2    G27U A31U  condition not met
3    G13C A44C      condition met
4    C48G C65G  condition not met
5     U8A A36C      condition met

Problem: Hi, just wondering whether U8G C16A shows self-cleavage of 0.2 or higher.
Result: condition met

Problem: Hi, just wondering whether G32A U55A shows self-cleavage of 0.2 or higher.
Result: condition not met

Problem: Hi, just wondering whether C6A U8C shows self-cleavage of 0.2 or higher.
Result: condition met

Sourced from the RNAGym collection of RNA variant scans (doi:10.7554/elife.80360)
